# System: L515M/M552I mutant HBV, cell line MI4
# assayName: Antiviral testing in stable HepG2 cell lines, EPA of intracellular nucleocapsids
# Assay type: cell-based, hepatitis B virus
# experimentalContext: L515M/M552I, cell line MI4; mean ± SD of three to four experiments; read-out: EC50
# Protocol: Recombinant DNA constructs corresponding to these lamivudine-resistant mutants were created by site directed mutagenesis. […] The antiviral activity of LdT (telbivudine) and LdC, together with the control drugs lamivudine and PMEA, was determined against the mutant and wild-type HBV genomes in the respective test cell lines. […] Transfer clarified lysate to fresh tubes. Snap-freeze on dry-ice and store at −80° C. until ready to continue with endogenous polymerase assays essentially as described above. […]
Where a name gives a salt, the structure may show the parent alone.
quantityMeasured: EC50

compound | observedMeasurement
Nc1ccn([C@@H]2C[C@@H](O)[C@H](CO)O2)c(=O)n1 [LdC-HCl] | ≥ 1000 µM

Where these numbers come from: patent US8158606B2
